Entry source: ChEMBL document CHEMBL3792302

Ki reference
# assay-details: Displacement of [125I]-Sar1,Ile8-angiotensin 2 from AT1 receptor in Sprague-Dawley rat vascular smooth muscle cells after 150 mins by gamma counting analysis
Kindly answer with a numeric value in nM, unit omitted.

// solved cases for Ki follow
molecule-smiles: CCc1nc2c(C)cc(-c3nc4ccccc4n3C)cc2n1Cc1ccc2c(ccn2-c2ccccc2C(=O)O)c1
Ki, nM: 8.16
--
molecule-smiles: CCc1nc2c(C)cc(-c3nc4ccccc4n3C)cc2n1Cc1cccc2c1ccn2-c1ccccc1C(=O)O
Ki, nM: 1.14
--
molecule-smiles: CCCCc1nc2c(C)cc(-c3nc4ccccc4n3C)cc2n1Cc1ccc2c(ccn2-c2ccccc2C(=O)O)c1
Ki, nM: 1.39
--
molecule-smiles: CCc1nc2c(C)cc(-c3ccccn3)cc2n1Cc1ccc2c(ccn2-c2ccccc2C(=O)O)c1
Ki, nM: 0.84
--
molecule-smiles: CCCc1nc2c(C)cc(-c3ccccn3)cc2n1Cc1ccc2c(ccn2-c2ccccc2C(=O)O)c1
Ki, nM: 2.37

Quick one: Ki of CCCCc1nc2c(C)cc(-c3nc4ccccc4n3C)cc2n1Cc1cccc2c1ccn2-c1ccccc1C(=O)O ?
1.63

Quick one: Ki of CCCCc1nc2c(C)cc(-c3ccccn3)cc2n1Cc1ccc2c(ccn2-c2ccccc2C(=O)O)c1 ?
4.06

Quick one: Ki of CCCc1nc2c(C)cc(-c3ccccn3)cc2n1Cc1cccc2c1ccn2-c1ccccc1C(=O)O ?
3.4

###

# assay-details: Acute toxicity in ICR mouse assessed as mortality at 384 mg/kg, ig administered daily for 2 weeks measured during compound dosing
# Assay type: organism-based
# measurement-conditions: in vivo, po
outcome-measure: mortality at 336 h (%)
Kindly answer with a numeric value in %, unit omitted.

Quick one: mortality at 336 h of CCCc1nc2c(C)cc(-c3nc4ccccc4n3C)cc2n1Cc1cccc2c1ccn2-c1ccccc1C(=O)O ?
10

###

# assay-details: Acute toxicity in ICR mouse assessed as mortality at 307.20 mg/kg, ig administered daily for 2 weeks measured during compound dosing
# Format: organism-based
# measurement-conditions: in vivo, po, 307.2 mg/kg
outcome-measure: mortality at 336 h

Quick one: mortality at 336 h of CCCc1nc2c(C)cc(-c3nc4ccccc4n3C)cc2n1Cc1cccc2c1ccn2-c1ccccc1C(=O)O ?
0%

###

# Test system: Rattus norvegicus
# assay-details: Antihypertensive activity in SHR rat assessed as reduction in mean blood pressure at 5 mg/kg, po measured upto 24 hrs post dosing
# Assay type: functional, organism-based
The source made the active and inactive calls. The calls are words filed in the database; no cut-off is given here.

molecule-smiles: CCCc1nc2c(C)cc(-c3ccccn3)cc2n1Cc1cccc2c1ccn2-c1ccccc1C(=O)O
Activity: Active
--
molecule-smiles: CCc1nc2c(C)cc(-c3nc4ccccc4n3C)cc2n1Cc1cccc2c1ccn2-c1ccccc1C(=O)O
Activity: Active
--
molecule-smiles: CCCCc1nc2c(C)cc(-c3nc4ccccc4n3C)cc2n1Cc1ccc2c(ccn2-c2ccccc2C(=O)O)c1
Activity: Active

###

# Organism: Rattus norvegicus
# assay-details: Displacement of [125I]-Sar1,Ile8-angiotensin 2 from AT1 receptor in Sprague-Dawley rat vascular smooth muscle cells after 150 mins by gamma counting analysis

molecule-smiles: CCCCCc1nc2c(C)cc(-c3nc4ccccc4n3C)cc2n1Cc1cccc2c1ccn2-c1ccccc1C(=O)O
Activity: Dose-dependent effect

molecule-smiles: Cc1cc(-c2nc3ccccc3n2C)cc2c1nc(C)n2Cc1ccc2c(ccn2-c2ccccc2C(=O)O)c1
Activity: Dose-dependent effect

molecule-smiles: CCCCc1nc2c(C)cc(-c3ccccn3)cc2n1Cc1cccc2c1ccn2-c1ccccc1C(=O)O
Activity: Dose-dependent effect
